Biological target: T1, DENV-2 nonstructural protein 1 (NS1), recombinant (Dengue virus 2, strain …, UniProt P29990)
T1 construct: also called DENV-2 NS1; NS1 from DENV-2; source: bought: Native Antigen Company (recombinant)
T1 sequence (P29990 776-1127): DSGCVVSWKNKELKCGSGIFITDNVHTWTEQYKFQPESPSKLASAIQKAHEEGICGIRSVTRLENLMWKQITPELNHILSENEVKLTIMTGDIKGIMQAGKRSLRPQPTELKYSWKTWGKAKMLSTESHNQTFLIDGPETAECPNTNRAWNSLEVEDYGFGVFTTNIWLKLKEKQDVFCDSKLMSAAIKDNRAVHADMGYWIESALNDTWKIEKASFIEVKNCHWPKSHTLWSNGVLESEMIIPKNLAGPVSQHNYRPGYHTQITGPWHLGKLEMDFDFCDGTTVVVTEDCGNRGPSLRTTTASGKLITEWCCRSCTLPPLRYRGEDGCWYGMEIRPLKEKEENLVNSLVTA
Assay: SPR
Conditions: both partners purified
pKd: −log10 of the molar value.
Catalogue of binders with associated pKd
readout: pKd

- binder: "sdAb DC7 (VHH, source: E. coli Turner (DE3), pET22b, periplasmic, purified (Ni-Sepharose, SEC)) VHH: EVQLQASGGGSVQAGGSLRLSCAHSSITVPDYTIGWYRRAPGKGGEEVSLISMHGGRTWYAGSVKGRFAISRDSVKNTVYLQMNNLKPEDTDIYYCGGTTFGLAAAPNEYDSWGQGSQVTVSS"
  measurement: 8.59
- binder: "sdAb DD5 (VHH, source: E. coli Turner (DE3), pET22b, periplasmic, purified (Ni-Sepharose, SEC)) VHH: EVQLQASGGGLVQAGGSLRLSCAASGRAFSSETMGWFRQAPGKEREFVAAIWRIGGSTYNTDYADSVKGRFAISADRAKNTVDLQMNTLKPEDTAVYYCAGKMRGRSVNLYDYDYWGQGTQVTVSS"
  measurement: 8.35
- binder: "sdAb DH4 (VHH, source: E. coli Turner (DE3), pET22b, periplasmic, purified (Ni-Sepharose, SEC)) VHH: DVQLQASGGGVVQAGGSLRVSCAATGIAFASYAVAWYRQAPGKQREWVATVGGLGGTKYVDSVRGRFTISRDNAKNAVTLQMNSLKPEDTAVYYCAAVEWDDGHYYWDTWGQGTRVTVSA"
  measurement: 8.07
- binder: "sdAb DD1 (VHH, source: E. coli Turner (DE3), pET22b, periplasmic, purified (Ni-Sepharose, SEC)) VHH: EVQLQASGGGLVQAGGSLRVSCAATGIAFASYAVAWYRQAPGKQREWVATVGGLGGTKYVDSVKGRFTISRDNAKNAVTLQMNSLKPEDTAVYYCAAVEWDDGHYYWDTWGQGTRVTVSA"
  measurement: 7.82
- binder: "sdAb DD7 (VHH, source: E. coli Turner (DE3), pET22b, periplasmic, purified (Ni-Sepharose, SEC)) VHH: EVQLVQSGGGSVQAGGSLRLSCAHSSITVPDYTIGWFRRAPGKGGEEVSLISMHGGRSWYAGSVKGRFAISRDSVKNTVYLQMNNLKPEDTDIYYCGGTTFGLAAAPNEYDSWGQGSQVTVSS"
  measurement: 7.69
- binder: "sdAb DC4 (VHH, source: E. coli Turner (DE3), pET22b, periplasmic, purified (Ni-Sepharose, SEC)) VHH: EVQLQASGGGLVQAGGSLRLSCAASERTFSHYFVGWFRQAPGKEREFVARITWSGSNVEYEDAVKDRFTLSSDNAKNTVYLHMNSLKPEDTAVYYCAAANTIWTPTIRDYNVWGQGTQVTVSS"
  measurement: 7.38
- binder: "sdAb DD9 (VHH, source: E. coli Turner (DE3), pET22b, periplasmic, purified (Ni-Sepharose, SEC)) VHH: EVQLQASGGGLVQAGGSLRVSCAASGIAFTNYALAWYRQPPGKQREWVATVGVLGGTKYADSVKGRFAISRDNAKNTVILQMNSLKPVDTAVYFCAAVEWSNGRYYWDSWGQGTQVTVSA"
  measurement: 8.17
- binder: "sdAb DH12 (VHH, source: E. coli Turner (DE3), pET22b, periplasmic, purified (Ni-Sepharose, SEC)) VHH: EVQLVESGGGSVQAGGSLRLSCAASERTFSYYFMGWFRQAPGKEREWVARIRWNGDGADYTDAVKDRFTISSDHAKNTVYLQMNSLKPEDTAVYYCAAANSIWKPTTRDYNYWGQGTQVSVSS"
  measurement: 8.01
- binder: "sdAb DD6 (VHH, source: E. coli Turner (DE3), pET22b, periplasmic, purified (Ni-Sepharose, SEC)) VHH: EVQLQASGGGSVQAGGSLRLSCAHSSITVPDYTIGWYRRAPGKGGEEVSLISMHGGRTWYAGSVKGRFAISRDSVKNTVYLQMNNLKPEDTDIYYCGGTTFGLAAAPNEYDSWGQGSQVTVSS"
  measurement: 8.70
